Tested on: 475296-252-R-J1-PDC spheroid viability
Test: Anticancer human tumor 475296-252-R-J1-PDC patient-derived rectal carcinoma cell line growth inhibition [PI3K]
Settings: compound 0.01 µM; stronger effect = lower value; spheroids with HUVEC and MSC
reported_endpoint: viability, T/C

compound="CC(Nc1ccc2c(c1)OCCn1cc(N3C(=O)OCC3C(F)F)nc1-2)C(N)=O (stereo not given)" meas_value="96.9% [middle of 8 runs]"
compound=COc1c(OCCCN2CCOCC2)ccc2c3n(c(=NC(=O)c4cnc(N)nc4)nc12)CCN3 meas_value="97.3% [middle of 8 runs]"
compound=CC(=O)c1c(C)c2cnc(Nc3ccc(N4CCNCC4)cn3)nc2n(C2CCCC2)c1=O meas_value="98.9% [middle of 4 runs]"
compound=CCN1CCN(Cc2ccc(Nc3ncc(F)c(-c4cc(F)c5nc(C)n(C(C)C)c5c4)n3)nc2)CC1 meas_value="100% [middle of 4 runs]"
compound=Cn1ncnc1[C@H]1c2n[nH]c(=O)c3cc(F)cc(c23)N[C@@H]1c1ccc(F)cc1 meas_value="93.1% [middle of 4 runs]"

====

Tested on: 475296-252-R-J1-PDC spheroid viability
Assay: Anticancer human tumor 475296-252-R-J1-PDC cell line growth inhibition [PI3K];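 also: spheroids exposed to agents for seven days before readout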
Settings: second compound 0.00316 µM; first compound 0.0316 µM; stronger effect = lower value; spheroids with HUVEC and MSC
Let's look at some compounds and their measured viability, T/C.
reported_endpoint: viability, T/C (%)

compound="CC(C)n1nc(-c2ccc3oc(N)nc3c2)c2c(N)ncnc21 + COc1c(OCCCN2CCOCC2)ccc2c3n(c(=NC(=O)c4cnc(N)nc4)nc12)CCN3" system_tested="475296-252-R-J1-PDC spheroid viability" meas_value=81.4
compound="Cn1ncc(Cl)c1-c1cc(C(=O)NC(CN)Cc2cccc(F)c2)sc1Cl (stereo not given) + CC(Nc1ccc2c(c1)OCCn1cc(N3C(=O)OCC3C(F)F)nc1-2)C(N)=O" system_tested="475296-252-R-J1-PDC spheroid viability" meas_value=87.7
compound="CC1(C)CCC(CN2CCN(c3ccc(C(=O)NS(=O)(=O)c4ccc(NCC5CCOCC5)c([N+](=O)[O-])c4)c(Oc4cnc5[nH]ccc5c4)c3)CC2)=C(c2ccc(Cl)cc2)C1 + COc1c(OCCCN2CCOCC2)ccc2c3n(c(=NC(=O)c4cnc(N)nc4)nc12)CCN3" system_tested="475296-252-R-J1-PDC spheroid viability" meas_value=107
compound="CCN1CCN(Cc2ccc(Nc3ncc(F)c(-c4cc(F)c5nc(C)n(C(C)C)c5c4)n3)nc2)CC1 + CC(Nc1ccc2c(c1)OCCn1cc(N3C(=O)OCC3C(F)F)nc1-2)C(N)=O" system_tested="475296-252-R-J1-PDC spheroid viability" meas_value=94
compound="CCCS(=O)(=O)Nc1ccc(F)c(C(=O)c2c[nH]c3ncc(-c4ccc(Cl)cc4)cc23)c1F + CC(Nc1ccc2c(c1)OCCn1cc(N3C(=O)OCC3C(F)F)nc1-2)C(N)=O" system_tested="475296-252-R-J1-PDC spheroid viability" meas_value=84.5

====

System: 475296-252-R-J1-PDC spheroid viability
Assay: Anticancer human tumor 475296-252-R-J1-PDC cell line growth inhibition [PI3K];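 also: spheroids exposed to agents for seven days before readout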
Conditions: curve of first compound; second compound 0.0316 µM; spheroids with HUVEC and MSC
Collected IC50 values appear next to each entry.
reported_endpoint: IC50

compound="CC1(C)CCC(Nc2ncc(C(F)(F)F)c(-c3c[nH]c4c(P(C)(C)=O)c(C#N)ccc34)n2)CN1 (stereo not given) + CC(Nc1ncnc2nc[nH]c12)c1cc2cccc(Cl)c2c(=O)n1-c1ccccc1" system_tested="475296-252-R-J1-PDC spheroid viability" meas_value="> 10 µM"
compound="CC(C)n1nc(-c2ccc3oc(N)nc3c2)c2c(N)ncnc21 + CC(Nc1ncnc2nc[nH]c12)c1cc2cccc(Cl)c2c(=O)n1-c1ccccc1" system_tested="475296-252-R-J1-PDC spheroid viability" meas_value="> 0.1 µM"
compound="C#Cc1c(F)ccc2cc(O)cc(-c3ncc4c(N5CC6CCC(C5)N6)nc(OCC56CCCN5CC(F)C6)nc4c3F)c12 (stereo not given) + Cc1nc(NC(=O)N2CCCC2C(N)=O)sc1-c1ccnc(C(C)(C)C(F)(F)F)c1" system_tested="475296-252-R-J1-PDC spheroid viability" meas_value="> 10 µM"
compound="Cn1cnc2c(F)c(Nc3ccc(Br)cc3Cl)c(C(=O)NOCCO)cc21 + COc1c(OCCCN2CCOCC2)ccc2c3n(c(=NC(=O)c4cnc(N)nc4)nc12)CCN3" system_tested="475296-252-R-J1-PDC spheroid viability" meas_value="0.162 µM"
compound="CNC(=O)c1ccc(N2C(=S)N(c3ccc(C#N)c(C(F)(F)F)c3)C(=O)C2(C)C)cc1F + Cc1nc(NC(=O)N2CCCC2C(N)=O)sc1-c1ccnc(C(C)(C)C(F)(F)F)c1" system_tested="475296-252-R-J1-PDC spheroid viability" meas_value="> 10 µM"

====

Test system: 475296-252-R-J1-PDC spheroid viability
Assay: Anticancer human tumor 475296-252-R-J1-PDC cell line growth inhibition [PI3K];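 also: spheroids exposed to agents for seven days before readout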
Details: curve of first compound; second compound 3.16 µM; spheroids with HUVEC and MSC
reported_endpoint: IC50

molecule="CC(Cn1ccc(-c2ccc(C#N)c(Cl)c2)n1)NC(=O)c1cc(C(C)O)[nH]n1 (stereo unspecified) + CC(Nc1ncnc2nc[nH]c12)c1cc2cccc(Cl)c2c(=O)n1-c1ccccc1" meas_value="> 10 µM"
molecule="CC1(C)CCC(Nc2ncc(C(F)(F)F)c(-c3c[nH]c4c(P(C)(C)=O)c(C#N)ccc34)n2)CN1 (stereo unspecified) + CC(Nc1ncnc2nc[nH]c12)c1cc2cccc(Cl)c2c(=O)n1-c1ccccc1" meas_value="> 10 µM"
molecule="Cn1ncnc1[C@H]1c2n[nH]c(=O)c3cc(F)cc(c23)N[C@@H]1c1ccc(F)cc1 + CC(Nc1ncnc2nc[nH]c12)c1cc2cccc(Cl)c2c(=O)n1-c1ccccc1" meas_value="> 0.1 µM"
molecule="CCN1CCN(Cc2ccc(Nc3ncc(F)c(-c4cc(F)c5nc(C)n(C(C)C)c5c4)n3)nc2)CC1 + CC(Nc1ncnc2nc[nH]c12)c1cc2cccc(Cl)c2c(=O)n1-c1ccccc1" meas_value="> 1 µM"
molecule="C[C@@H](NC(=O)c1ncnc(N)c1Cl)c1ncc(C(=O)Nc2cc(C(F)(F)F)c(Cl)cn2)s1 + CC(Nc1ncnc2nc[nH]c12)c1cc2cccc(Cl)c2c(=O)n1-c1ccccc1" meas_value="> 10 µM"
molecule="Cn1ncc(Cl)c1-c1cc(C(=O)NC(CN)Cc2cccc(F)c2)sc1Cl (stereo unspecified) + Cc1nc(NC(=O)N2CCCC2C(N)=O)sc1-c1ccnc(C(C)(C)C(F)(F)F)c1" meas_value="8.01 µM"

====

Tested on: 475296-252-R-J1-PDC spheroid viability
Experiment: Anticancer human tumor 475296-252-R-J1-PDC cell line growth inhibition [PI3K];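 also: spheroids exposed to agents for seven days before readout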
Conditions: curve of first compound; second compound 1 µM; spheroids with HUVEC and MSC
pIC50: −log10 of the molar value.
Reported pIC50 values are given for each entry in this list.
reported_endpoint: pIC50

compound="Cn1cnc2c(F)c(Nc3ccc(Br)cc3Cl)c(C(=O)NOCCO)cc21 + Cc1nc(NC(=O)N2CCCC2C(N)=O)sc1-c1ccnc(C(C)(C)C(F)(F)F)c1" meas_value=6.12
compound="CC(C)NCC(C(=O)N1CCN(c2ncnc3c2C(C)CC3O)CC1)c1ccc(Cl)cc1 (configuration not stated) + Cc1nc(NC(=O)N2CCCC2C(N)=O)sc1-c1ccnc(C(C)(C)C(F)(F)F)c1" meas_value="< 5.00"
compound="CC1(C)CCC(CN2CCN(c3ccc(C(=O)NS(=O)(=O)c4ccc(NCC5CCOCC5)c([N+](=O)[O-])c4)c(Oc4cnc5[nH]ccc5c4)c3)CC2)=C(c2ccc(Cl)cc2)C1 + CC(Nc1ccc2c(c1)OCCn1cc(N3C(=O)OCC3C(F)F)nc1-2)C(N)=O" meas_value="< 5.00"
compound="Cn1nccc1Nc1nccc(-c2ccn(C(CO)c3ccc(Cl)c(F)c3)c(=O)c2)n1 (configuration not stated) + Cc1nc(NC(=O)N2CCCC2C(N)=O)sc1-c1ccnc(C(C)(C)C(F)(F)F)c1" meas_value="< 5.00"
compound="Cn1ncnc1[C@H]1c2n[nH]c(=O)c3cc(F)cc(c23)N[C@@H]1c1ccc(F)cc1 + CC(Nc1ncnc2nc[nH]c12)c1cc2cccc(Cl)c2c(=O)n1-c1ccccc1" meas_value="< 7.00"
compound="CC1(C)CCC(Nc2ncc(C(F)(F)F)c(-c3c[nH]c4c(P(C)(C)=O)c(C#N)ccc34)n2)CN1 (configuration not stated) + Cc1nc(NC(=O)N2CCCC2C(N)=O)sc1-c1ccnc(C(C)(C)C(F)(F)F)c1" meas_value="< 5.00"
compound="CC(C)NCC(C(=O)N1CCN(c2ncnc3c2C(C)CC3O)CC1)c1ccc(Cl)cc1 (configuration not stated) + COc1c(OCCCN2CCOCC2)ccc2c3n(c(=NC(=O)c4cnc(N)nc4)nc12)CCN3" meas_value=5.21
compound="Cn1ncnc1[C@H]1c2n[nH]c(=O)c3cc(F)cc(c23)N[C@@H]1c1ccc(F)cc1 + COc1c(OCCCN2CCOCC2)ccc2c3n(c(=NC(=O)c4cnc(N)nc4)nc12)CCN3" meas_value="< 7.00"
compound="CNC(=O)c1ccc(N2C(=S)N(c3ccc(C#N)c(C(F)(F)F)c3)C(=O)C2(C)C)cc1F + COc1c(OCCCN2CCOCC2)ccc2c3n(c(=NC(=O)c4cnc(N)nc4)nc12)CCN3" meas_value="< 5.00"
compound="CC(C)NCC(C(=O)N1CCN(c2ncnc3c2C(C)CC3O)CC1)c1ccc(Cl)cc1 (configuration not stated) + CC(Nc1ccc2c(c1)OCCn1cc(N3C(=O)OCC3C(F)F)nc1-2)C(N)=O" meas_value="< 5.00"
compound="C[C@@H](NC(=O)c1ncnc(N)c1Cl)c1ncc(C(=O)Nc2cc(C(F)(F)F)c(Cl)cn2)s1 + CC(Nc1ccc2c(c1)OCCn1cc(N3C(=O)OCC3C(F)F)nc1-2)C(N)=O" meas_value="< 5.00"
compound="CNC(=O)c1ccc(N2C(=S)N(c3ccc(C#N)c(C(F)(F)F)c3)C(=O)C2(C)C)cc1F + Cc1nc(NC(=O)N2CCCC2C(N)=O)sc1-c1ccnc(C(C)(C)C(F)(F)F)c1" meas_value="< 5.00"
compound="CC1(C)CCC(Nc2ncc(C(F)(F)F)c(-c3c[nH]c4c(P(C)(C)=O)c(C#N)ccc34)n2)CN1 (configuration not stated) + CC(Nc1ncnc2nc[nH]c12)c1cc2cccc(Cl)c2c(=O)n1-c1ccccc1" meas_value="< 5.00"
compound="CC(Cn1ccc(-c2ccc(C#N)c(Cl)c2)n1)NC(=O)c1cc(C(C)O)[nH]n1 (configuration not stated) + CC(Nc1ccc2c(c1)OCCn1cc(N3C(=O)OCC3C(F)F)nc1-2)C(N)=O" meas_value="< 5.00"
compound="CCCS(=O)(=O)Nc1ccc(F)c(C(=O)c2c[nH]c3ncc(-c4ccc(Cl)cc4)cc23)c1F + CC(Nc1ccc2c(c1)OCCn1cc(N3C(=O)OCC3C(F)F)nc1-2)C(N)=O" meas_value="< 5.00"
compound="CCCS(=O)(=O)Nc1ccc(F)c(C(=O)c2c[nH]c3ncc(-c4ccc(Cl)cc4)cc23)c1F + Cc1nc(NC(=O)N2CCCC2C(N)=O)sc1-c1ccnc(C(C)(C)C(F)(F)F)c1" meas_value="< 5.00"
compound="CCCS(=O)(=O)Nc1ccc(F)c(C(=O)c2c[nH]c3ncc(-c4ccc(Cl)cc4)cc23)c1F + CC(Nc1ncnc2nc[nH]c12)c1cc2cccc(Cl)c2c(=O)n1-c1ccccc1" meas_value="< 5.00"
compound="C=CC(=O)N1CCN(c2nc(=O)n(-c3c(C)ccnc3C(C)C)c3nc(-c4c(O)cccc4F)c(F)cc23)C(C)C1 (configuration not stated) + CC(Nc1ncnc2nc[nH]c12)c1cc2cccc(Cl)c2c(=O)n1-c1ccccc1" meas_value="< 5.00"
compound="Cn1ncc(Cl)c1-c1cc(C(=O)NC(CN)Cc2cccc(F)c2)sc1Cl (configuration not stated) + CC(Nc1ncnc2nc[nH]c12)c1cc2cccc(Cl)c2c(=O)n1-c1ccccc1" meas_value="< 5.00"
compound="CC(C)n1nc(-c2ccc3oc(N)nc3c2)c2c(N)ncnc21 + CC(Nc1ncnc2nc[nH]c12)c1cc2cccc(Cl)c2c(=O)n1-c1ccccc1" meas_value="< 7.00"
compound="Cn1ncc(Cl)c1-c1cc(C(=O)NC(CN)Cc2cccc(F)c2)sc1Cl (configuration not stated) + Cc1nc(NC(=O)N2CCCC2C(N)=O)sc1-c1ccnc(C(C)(C)C(F)(F)F)c1" meas_value="< 5.00"
compound="Cn1cnc2c(F)c(Nc3ccc(Br)cc3Cl)c(C(=O)NOCCO)cc21 + CC(Nc1ccc2c(c1)OCCn1cc(N3C(=O)OCC3C(F)F)nc1-2)C(N)=O" meas_value=6.85
